From: paper PMC5540273

pKd: −log10 of the molar value.
Recorded pKd values (VRK2) are given below.

{"given.smiles": "O=C1NC(=O)C(c2ccc(Cl)cc2)=C1Nc1cccc(Cl)c1", "target.or.test.system": "VRK2", "pKd": "< 5.00"}
{"given.smiles": "Cn1cnc2c(N)ncnc21", "target.or.test.system": "VRK2", "pKd": "< 5.00"}

---

Listed next: entries and their corresponding %Inh.
- Tested on: PRKCD;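 further: KINOMEscan kinase panel screen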
- particulars: concentration: 1 μM, replicates: in singlicate; n = 1

{"given.smiles": "Cn1cnc2c(N)ncnc21", "target.or.test.system": "PRKCD", "%Inh, %": 0}
{"given.smiles": "Cc1ccccc1Cn1ccn2c(=O)cc(N3CCOCC3)nc12", "target.or.test.system": "PRKCD", "%Inh, %": 0}
{"given.smiles": "COc1ccc(CSc2nnc(-c3ccc4c(c3)CCO4)o2)cc1", "target.or.test.system": "PRKCD", "%Inh, %": 14}
{"given.smiles": "CC[C@@H]1CO[C@H](C(=O)Nc2ccccc2)CN1c1cc(-c2ccc3c(N)n[nH]c3c2)nc(NC)n1", "target.or.test.system": "PRKCD", "%Inh, %": 0}
{"given.smiles": "O=C1NC(=O)C(c2ccc(Cl)cc2)=C1Nc1ccc(O)cc1", "target.or.test.system": "PRKCD", "%Inh, %": 0}
